- CONDITION: buffer; pH 7.4; 200.0 µM
solubility kinetic by entry:
METRIC: solubility kinetic (µg/mL)

MOLECULE: Nc1cccc(C(=O)O)c1
METRIC: solubility kinetic
UNIT STRING: µg/mL
VALUE MODIFIER: >
RECORDED MEASUREMENT: 20.6

MOLECULE: Cc1csc(NC(=O)c2cncc(Br)c2)n1
METRIC: solubility kinetic
UNIT STRING: µg/mL
VALUE MODIFIER: =
RECORDED MEASUREMENT: 4.7

MOLECULE: Fc1ccccc1N1CCN(Cc2cnc(Cl)s2)CC1
METRIC: solubility kinetic
UNIT STRING: µg/mL
VALUE MODIFIER: =
RECORDED MEASUREMENT: 37.1

MOLECULE: COc1ccccc1NC(=O)Nc1c(C)nn(C)c1C
METRIC: solubility kinetic
UNIT STRING: µg/mL
VALUE MODIFIER: >
RECORDED MEASUREMENT: 41.1

MOLECULE: CC(=O)c1ccc(OCC(=O)Nc2ccccc2N2CCCC2)cc1
METRIC: solubility kinetic
UNIT STRING: µg/mL
VALUE MODIFIER: =
RECORDED MEASUREMENT: 44.4

MOLECULE: Cc1cc(C)nc(Nc2ccccc2F)n1.Cl
METRIC: solubility kinetic
UNIT STRING: µg/mL
VALUE MODIFIER: =
RECORDED MEASUREMENT: 26.4

MOLECULE: Cc1ccccc1/C=C/C(=O)N1CCOCC1
METRIC: solubility kinetic
UNIT STRING: µg/mL
VALUE MODIFIER: >
RECORDED MEASUREMENT: 34.7

MOLECULE: NC(=O)CC(c1ccccc1)c1ccc2c(c1)OCO2 (centres undefined)
METRIC: solubility kinetic
UNIT STRING: µg/mL
VALUE MODIFIER: =
RECORDED MEASUREMENT: 39.9

MOLECULE: Cc1nnc(SCC(=O)Nc2ccc(S(N)(=O)=O)cc2)n(N)c1=O
METRIC: solubility kinetic
UNIT STRING: µg/mL
VALUE MODIFIER: >
RECORDED MEASUREMENT: 55.6

MOLECULE: COc1ccc(OCCSc2nc(N)cc(=O)[nH]2)cc1
METRIC: solubility kinetic
UNIT STRING: µg/mL
VALUE MODIFIER: =
RECORDED MEASUREMENT: 20.7

MOLECULE: CCOC(=O)c1ccc(N)cc1
METRIC: solubility kinetic
UNIT STRING: µg/mL
VALUE MODIFIER: >
RECORDED MEASUREMENT: 24.8

MOLECULE: O=C(Nc1ccc2ccccc2n1)Nc1ccccc1F
METRIC: solubility kinetic
UNIT STRING: µg/mL
VALUE MODIFIER: <
RECORDED MEASUREMENT: 0.2

MOLECULE: CCN=C1SC(C(=O)Nc2cccc(Cl)c2)CC(=O)N1CC (centres undefined)
METRIC: solubility kinetic
UNIT STRING: µg/mL
VALUE MODIFIER: =
RECORDED MEASUREMENT: 2.6

MOLECULE: Cc1ccccc1OCC(=O)Nc1ccc([N+](=O)[O-])cc1
METRIC: solubility kinetic
UNIT STRING: µg/mL
VALUE MODIFIER: =
RECORDED MEASUREMENT: 0.4

MOLECULE: O=C(CN1C(=O)NC2(CCCCC2)C1=O)Nc1ccc(N2CCCCC2)cc1
METRIC: solubility kinetic
UNIT STRING: µg/mL
VALUE MODIFIER: =
RECORDED MEASUREMENT: 10.9

MOLECULE: COc1cccc(NC(=O)CNCc2ccccc2)c1.Cl
METRIC: solubility kinetic
UNIT STRING: µg/mL
VALUE MODIFIER: >
RECORDED MEASUREMENT: 46

MOLECULE: Cc1ccc2ncnc(Nc3cccc([N+](=O)[O-])c3)c2c1
METRIC: solubility kinetic
UNIT STRING: µg/mL
VALUE MODIFIER: =
RECORDED MEASUREMENT: 5.9

MOLECULE: COC(=O)c1cc(S(=O)(=O)N2CCCCC2)c[nH]1
METRIC: solubility kinetic
UNIT STRING: µg/mL
VALUE MODIFIER: >
RECORDED MEASUREMENT: 40.8

MOLECULE: O=C(c1cc(-c2ccccc2O)on1)N1CCCCCC1
METRIC: solubility kinetic
UNIT STRING: µg/mL
VALUE MODIFIER: =
RECORDED MEASUREMENT: 2.6

MOLECULE: COc1ccc(CNC(=O)COC(=O)CN2C(=O)C3CC=CCC3C2=O)cc1 (centres undefined)
METRIC: solubility kinetic
UNIT STRING: µg/mL
VALUE MODIFIER: >
RECORDED MEASUREMENT: 58

MOLECULE: O=C(COC(=O)/C=C/c1ccc(C(F)(F)F)cc1)NC1CCCC1
METRIC: solubility kinetic
UNIT STRING: µg/mL
VALUE MODIFIER: <
RECORDED MEASUREMENT: 0.7

MOLECULE: COC(=O)c1ccc(C(=O)OC)c(NC(=O)C2CCCO2)c1 (centres undefined)
METRIC: solubility kinetic
UNIT STRING: µg/mL
VALUE MODIFIER: =
RECORDED MEASUREMENT: 45.3

MOLECULE: O=C1CCN(S(=O)(=O)c2ccc(Br)cc2)CCN1
METRIC: solubility kinetic
UNIT STRING: µg/mL
VALUE MODIFIER: =
RECORDED MEASUREMENT: 39.1

MOLECULE: Cc1cnc(C(=O)OCC(=O)Nc2ccccc2[N+](=O)[O-])cn1
METRIC: solubility kinetic
UNIT STRING: µg/mL
VALUE MODIFIER: >
RECORDED MEASUREMENT: 47.4

MOLECULE: Nc1c(C(=O)c2ccccc2)oc2ccc([N+](=O)[O-])cc12
METRIC: solubility kinetic
UNIT STRING: µg/mL
VALUE MODIFIER: =
RECORDED MEASUREMENT: 1.3

MOLECULE: O=C(C1Cc2ccccc2CN1S(=O)(=O)c1ccccc1[N+](=O)[O-])N1CCOCC1 (centres undefined)
METRIC: solubility kinetic
UNIT STRING: µg/mL
VALUE MODIFIER: =
RECORDED MEASUREMENT: 63.7

MOLECULE: Cc1cc2nc(/C(C#N)=C/c3ccncc3)[nH]c2cc1C
METRIC: solubility kinetic
UNIT STRING: µg/mL
VALUE MODIFIER: =
RECORDED MEASUREMENT: 1.7

MOLECULE: COc1cc2ccccc2cc1C(=O)Nc1ccccc1Cl
METRIC: solubility kinetic
UNIT STRING: µg/mL
VALUE MODIFIER: <
RECORDED MEASUREMENT: 0.7

MOLECULE: CC(=O)Nc1ccc(NC(=O)C2c3ccccc3Oc3ccccc32)cc1
METRIC: solubility kinetic
UNIT STRING: µg/mL
VALUE MODIFIER: =
RECORDED MEASUREMENT: 1.1

MOLECULE: CC(=O)Nc1ccc(NCc2cccs2)cc1
METRIC: solubility kinetic
UNIT STRING: µg/mL
VALUE MODIFIER: >
RECORDED MEASUREMENT: 36.9

MOLECULE: Cc1cc(C)cc(NC(=O)c2cc(C)n(Cc3cccs3)c2C)c1
METRIC: solubility kinetic
UNIT STRING: µg/mL
VALUE MODIFIER: =
RECORDED MEASUREMENT: 2.3

MOLECULE: COc1cc(OC)nc(NC(=O)NS(=O)(=O)c2ccccc2Cl)n1
METRIC: solubility kinetic
UNIT STRING: µg/mL
VALUE MODIFIER: =
RECORDED MEASUREMENT: 45

MOLECULE: Cl.c1csc(CNCc2ccncc2)c1
METRIC: solubility kinetic
UNIT STRING: µg/mL
VALUE MODIFIER: >
RECORDED MEASUREMENT: 36.1

MOLECULE: O=C(Nc1ccccc1Cl)c1ccc([N+](=O)[O-])o1
METRIC: solubility kinetic
UNIT STRING: µg/mL
VALUE MODIFIER: =
RECORDED MEASUREMENT: 39.4
